Ref: PubChem BioAssay AID734

target: Collagenase 3 (Homo sapiens); experiment: human MMP13 inhibition, fluorescence-interfering compounds – biochemical, possible fluorescent artifacts, delta fluorescence, confirmation (AID 734); conditions: MMP13 fTHP FRET cleavage, delta fluorescence 4 h; active compounds read high;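 each compound tested at 4 µM nominal in triplicate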;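 also: 0% = DMSO only wells and 100% = 8 µM reference MMP13 inhibitor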
The campaign covered roughly 5,100 compounds. Fewer than 10 were called active. These entries were drawn from the full list.
Overview of recorded inhibition for various molecules

# SMILES CODE, OUTPUT UNIT, inhibition
records = [
    ("COc1cccc2sc(Nc3nnc(-c4ccccc4Cl)o3)nc12", "%", 3.62),
    ("COc1ccc(-c2nnc(Nc3nc4c(OC)cccc4s3)o2)c(OC)c1", "%", 34.9),
    ("Fc1cccc2sc(Nc3nnc(-c4ccccc4)o3)nc12", "%", 74.7),
    ("COc1ccccc1-c1nnc(Nc2nc3c(OC)cccc3s2)o1", "%", 2.8),
    ("Fc1cccc2sc(Nc3nnc(-c4ccco4)o3)nc12", "%", 0.58),
    ("COc1cccc2sc(Nc3nnc(-c4cccs4)o3)nc12", "%", -71.9),
]

====

molecular target: Collagenase 3 (Homo sapiens) (UniProt P45452); test: human MMP13 inhibition, fluorescence-interfering compounds – biochemical, possible fluorescent artifacts, delta fluorescence, confirmation (AID 734); details: MMP13 fTHP FRET cleavage, delta fluorescence 4 h; active compounds read high;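 each compound tested at 4 µM nominal in triplicate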;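 also: 0% = DMSO only wells and 100% = 8 µM reference MMP13 inhibitor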
Out of some 5,100 compounds screened, fewer than 10 were called active. The list is a sample of the results.

# COMPOUND, inhibition
rows = [
    ("CC(C)CCNC(=O)C(c1ccco1)N(Cc1ccccc1)C(=O)c1snc(C(N)=O)c1N (stereo not drawn)", "2.54% (inactive)"),
    ("O=S(=O)(NC1c2cccc3cccc(c23)C1N1CCNCC1)c1ccccc1 (stereo not drawn)", "8.95% (inactive)"),
    ("O=C(C1CCCN(S(=O)(=O)c2cnc[nH]2)C1)N1CCN(Cc2ccccc2)CC1 (stereo not drawn)", "6.19% (inactive)"),
    ("O=c1cc(CN2CCN(c3ccccc3)CC2)c2cc(O)c(-c3ccccc3)cc2o1", "8.57% (inactive)"),
    ("NC(=O)C1CCCN(S(=O)(=O)c2ccc(Br)cc2)C1 (stereo not drawn)", "4.17% (inactive)"),
    ("CC(C)(/C=N/O)/[N+]([O-])=C/c1ccccc1C(F)(F)F", "8.54% (inactive)"),
    ("CC(=O)Nc1nc2n(n1)C(c1ccccc1)C=C(c1ccccc1)N2 (stereo not drawn)", "0.41% (inactive)"),
    ("Cc1cc(C)c2c(N)c(C(=O)Nc3nccs3)sc2n1", "-7.23% (inactive)"),
    ("CCOC(=O)N1CCC(NC(=O)c2cc3c(-c4cccc(OC)c4)nn(C)c3s2)CC1", "1.92% (inactive)"),
    ("O=C(Nc1ccon1)c1cnc2sccn2c1=O", "3.24% (inactive)"),
    ("CCOC(=O)c1cc2c(=O)n3ccccc3nc2n(C(C)C)c1=NC(=O)c1ccncc1", "-11.4% (inactive)"),
    ("CCOC(=O)CN=C1CC(C)(C)CC2=C1Sc1ncnc(N(C)C)c1N2", "8.62% (inactive)"),
    ("CN(C)c1ccc(C(=O)N2CC(=O)N(CCc3ccccc3)C(=O)C2)cc1", "0.16% (inactive)"),
    ("CCOc1ccc(-c2cc(C(=O)NCCCN3CCN(CC)CC3)c3ccccc3n2)cc1", "-9.76% (inactive)"),
    ("O=S(=O)(c1ccccc1C(F)(F)F)N1CCOCC1", "6.08% (inactive)"),
    ("N=C1C(c2nc3ccccc3c(=O)[nH]2)=C(O)CN1CCc1ccccc1", "-5.72% (inactive)"),
    ("COc1cc2ccccc2cc1C(=O)OCC(=O)N1CCOCC1", "6.42% (inactive)"),
    ("COc1ccc(C(=O)NCc2nnc(SC)n2C2CCCCC2)cc1", "-1.48% (inactive)"),
    ("COC(=O)c1[nH]c2cccc(OC)c2c1NC(=O)CN1CCC(C(N)=O)(N2CCCCC2)CC1", "5.66% (inactive)"),
    ("COc1ccc(-c2cn3c(C)c(C(=O)Nc4cc(NC(C)=O)ccc4OC)sc3n2)cc1", "14.3% (inactive)"),
    ("COc1ccccc1C(=O)Nc1ccc(S(=O)(=O)N2CCOCC2)cc1", "-0.87% (inactive)"),
    ("CCOc1ccc2[nH]c(=O)c(C(c3nnnn3Cc3ccco3)N3CCC(C)CC3)cc2c1 (stereo not drawn)", "8.93% (inactive)"),
    ("O=C(CCCOc1ccccc1)Nc1nccs1", "3.79% (inactive)"),
    ("COc1ccc(-c2noc(CCC(=O)NCc3cccnc3)n2)cc1", "-0.6% (inactive)"),
    ("CC(C)CCSc1nc2c(c(=O)[nH]c(=O)n2C)n1CCc1ccccc1", "5.17% (inactive)"),
    ("Cc1ccc2nc(N3CCN(Cc4nnnn4Cc4ccccc4)CC3)c(C#N)cc2c1", "1.5% (inactive)"),
    ("COCCOC(=O)c1cc(C(=O)c2cc(F)ccc2O)coc1=N", "6.65% (inactive)"),
    ("COc1ccc(C(=O)/C=C/Nc2cccc(C)n2)cc1OC", "5.27% (inactive)"),
    ("CCS(=O)(=O)Nc1cc(-c2nc3cccnc3s2)ccc1C", "-0.51% (inactive)"),
    ("COC(=O)c1cc2c(s1)CS(=O)C2 (stereo not drawn)", "5.21% (inactive)"),
    ("COc1cc(OC)cc(-c2cc3nc(C)c(CCC(=O)NC(C)CCc4ccco4)c(C)n3n2)c1 (stereo not drawn)", "-0.26% (inactive)"),
    ("Cc1ccc(S(=O)(=O)Nc2ccccc2C(N)=O)cc1", "7.43% (inactive)"),
    ("COc1ccc(CCNc2oc(-c3ccc(OC)c(OC)c3)nc2C#N)cc1", "1.68% (inactive)"),
    ("O=C(c1ccc(Br)o1)N1CCN(Cc2ccc3c(c2)OCO3)CC1", "3.6% (inactive)"),
    ("CN1CCN(CCCNC(=O)Nc2cccc3ccccc23)CC1", "4.59% (inactive)"),
    ("COc1ccc2cc3cc(C(=O)NCCN4CCc5ccccc5C4)oc3nc2c1", "-102% (inactive)"),
    ("Cc1cc(-c2ccccc2)nn1-c1nc2c(c(=O)[nH]c(=O)n2C)n1C", "6.56% (inactive)"),
    ("COc1ccc(O)c(C(=O)c2cc(C#N)c(=O)n(-c3c(C)n(C)n(-c4ccccc4)c3=O)c2)c1", "6.02% (inactive)"),
    ("N#Cc1nc(-c2cccs2)oc1N1CCOCC1", "-82.1% (inactive)"),
    ("Cc1ccc(S(=O)(=O)N2CCCC2C(=O)Oc2ccccc2)cc1 (stereo not drawn)", "5.98% (inactive)"),
    ("O=c1[nH]c2cc3c(cc2cc1C(c1nnnn1C1CCCC1)N1CCSCC1)OCCO3 (stereo not drawn)", "1.34% (inactive)"),
    ("COCCCNC(=O)c1ccc2nc3ccccc3c(=O)n2c1", "-3.91% (inactive)"),
    ("COCCn1c(SCc2csc(-c3ccccc3)n2)nc2ccccc21", "3.46% (inactive)"),
]

====

Listed here: items and their measured inhibition.
molecular target: Collagenase 3 (Homo sapiens) (UniProt P45452); test: human MMP13 inhibition, fluorescence-interfering compounds – biochemical, possible fluorescent artifacts, delta fluorescence, confirmation (AID 734); conditions: MMP13 fTHP FRET cleavage, delta fluorescence 4 h; active compounds read high;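 each compound tested at 4 µM nominal in triplicate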;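 also: 0% = DMSO only wells and 100% = 8 µM reference MMP13 inhibitor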
Fewer than 10 of roughly 5,100 compounds were called active. Not all results are given here.

# MOLECULE, inhibition
measured = [
    ("Cc1cccc2cc(C#N)c(NCCNS(=O)(=O)c3ccc4c(c3)OCCO4)nc12", "3.35% (inactive)"),
    ("CC(Oc1ccc2oc(-c3ccccc3)c(C(=O)O)c2c1)C(=O)O (stereo unspecified)", "-5.25% (inactive)"),
    ("CC1(C)Cc2c(C#N)c(N3CCN(C(=O)c4ccco4)CC3)nc(Cc3ccccc3)c2CO1", "-9.09% (inactive)"),
    ("CC1=CC2=NC(=O)CC(C)(C(=O)N(CC(=O)NC(C)(C)C)C3CCCC3)N2C=C1 (stereo unspecified)", "2.69% (inactive)"),
    ("CCC(=O)N/C(N)=N/c1nc(C)c2cc(OC)ccc2n1", "1.9% (inactive)"),
    ("O=C(Nc1ccc(-c2nc3cccnc3s2)cc1)c1ccc(Br)o1", "2.61% (inactive)"),
    ("CCOCCCn1c(C)nc2c(c1=O)c1nc3ccccc3nc1n2CCC1=CCCCC1", "-2.22% (inactive)"),
    ("CCOc1ccc(CC(=O)N2CCN(c3ccc(N4CCOCC4)nn3)CC2)cc1OCC", "11.4% (inactive)"),
    ("O=C(NCc1cccnc1)c1nnc(Cc2ccc(F)cc2)o1", "2.89% (inactive)"),
    ("CCOc1ccc(C2CC(c3cccc(Cl)c3)n3nc(N)nc3N2)cc1 (stereo unspecified)", "4.79% (inactive)"),
    ("CCCCOC(=O)Cc1c(O)c2ccccc2[nH]c1=O", "0.98% (inactive)"),
    ("c1ccc(-c2noc(-c3cccc4ccccc34)n2)nc1", "6.64% (inactive)"),
    ("CCOC(=O)Cc1c(C)nc2c(-c3ccc(Cl)cc3)c[nH]n2c1=O", "17.8% (inactive)"),
    ("CC1CCCN(C/C(O)=C(\\C#N)c2nc3ccccc3[nH]2)C1 (stereo unspecified)", "4.57% (inactive)"),
    ("COc1ccc(C2C(C(=O)N3CCN(c4ccccn4)CC3)CC(=O)N2c2ccc(OC)cc2)cc1 (stereo unspecified)", "1.09% (inactive)"),
    ("O=S(=O)(c1cccc(-c2cn3cc(Cl)ccc3n2)c1)N1CCOCC1", "4.43% (inactive)"),
    ("CC(C)COc1ccc(-c2nnc(-c3ccco3)o2)cc1", "3.48% (inactive)"),
    ("CN1C(=O)Cc2cc(S(=O)(=O)N3CCOCC3)ccc21", "2.06% (inactive)"),
    ("O=S(=O)(Nc1ccc(-c2nc3cccnc3s2)cc1)c1cccs1", "198% (active)"),
    ("CC(O)Cn1ccccc1=N (stereo unspecified)", "4.32% (inactive)"),
    ("c1ccc2sc(Cc3nnc4n3CCCCC4)nc2c1", "4.74% (inactive)"),
    ("COc1cccc(NC(=O)CSc2nnc(Cc3cccn3C)n2-c2ccc(F)cc2)c1", "1.13% (inactive)"),
    ("Cc1cccn2c(=O)c(C=Nc3ccc(Cl)cc3)c(NCCO)nc12", "-0.72% (inactive)"),
    ("CC(C)c1nc(N2CCOCC2)c(C#N)c2c1CCC2", "-3.95% (inactive)"),
    ("Cc1oc(C(C)(C)C)cc1C(=O)Nc1ccc(C(=O)O)cc1", "4.23% (inactive)"),
    ("Cc1cc(N2CCC(C)CC2)nc2ccc(N3C(=O)CCC3=O)cc12", "4.49% (inactive)"),
    ("O=C(Nc1ccc(-c2nc3cccnc3s2)cc1)c1ccco1", "4.83% (inactive)"),
    ("CC(=O)Nc1ccc(Nc2ncnc3c2cnn3-c2cccc(C)c2)cc1", "8.03% (inactive)"),
    ("CCn1c(=O)c(C(C)=O)nc2ccccc21", "7.87% (inactive)"),
    ("CN(C)c1ccc(-c2nn3c(C4CCCCC4)nnc3s2)cc1", "4.05% (inactive)"),
    ("Cc1cc(C)n(-c2nc(-c3cccc(Cl)c3)cs2)n1", "8.4% (inactive)"),
    ("O=c1c2[nH]c3ccccc3c2ncn1Cc1cccnc1", "5.84% (inactive)"),
    ("CCN1c2ccccc2-c2nc3ccccc3n2C1c1ccncc1 (stereo unspecified)", "2.69% (inactive)"),
    ("Cc1onc(-c2ccccc2)c1C(=O)Nc1nnc(-c2ccncc2)s1", "-3.75% (inactive)"),
    ("O=C(CSc1ccc2nnc(-c3cccc(F)c3)n2n1)NCC1CCCO1 (stereo unspecified)", "0.9% (inactive)"),
    ("Cc1ccc(NC(=O)CC2Nc3ccccc3NC2=O)cc1Cl (stereo unspecified)", "5.69% (inactive)"),
    ("COCCNC(=O)c1cc2c(-c3ccccc3F)nn(C)c2s1", "-5.47% (inactive)"),
    ("Oc1ccc(N=Cc2ccc(-c3cccs3)s2)cc1", "90.8% (active)"),
    ("Cc1cc(=O)oc2cc(OC(C)C(=O)Nc3nccs3)ccc12 (stereo unspecified)", "3.57% (inactive)"),
    ("CCOC(=O)c1[nH]c2ccc(OCC)cc2c1NC(=O)CN1CCN(c2ccccc2)CC1", "1.46% (inactive)"),
    ("c1ccc(-n2nc3c(ccc4cnnc43)[nH]2)cc1", "-1.01% (inactive)"),
    ("O=C(CCSc1nnc2ccccn12)Nc1ccc(F)cc1", "3% (inactive)"),
    ("O=C(O)c1ccc(CSc2nnc(-c3ccncc3)n2CC2CCCO2)cc1 (stereo unspecified)", "5.15% (inactive)"),
    ("COC(=O)c1ccc(Sc2ccc(C)cc2)c(N)c1", "-1.3% (inactive)"),
    ("CC1CCCC(C)N1C(=O)CSc1nnc(-c2c[nH]c3ccccc23)o1 (stereo unspecified)", "5.55% (inactive)"),
    ("COC(=O)c1[nH]c2cccc(OC)c2c1NC(=O)CCN1CC(C)CC(C)C1 (stereo unspecified)", "-1.84% (inactive)"),
]
